tested on: HepG2; test: cell viability relative to DMSO; higher = less toxic; conditions: 72 h; 100 nM
measurement-kind: cell viability (%)
Numbers only, in %.

{"compound": "CCN(CC)c1ccc(C(=C2C=CC(=[N+](CC)CC)C=C2)c2ccccc2)cc1 [brilliant-green]", "cell viability / %": 58.8}

Could I get cell viability for every one of these entries?
1. COc1cc2c(cc1F)C(c1ccccc1Cl)=Nc1c(n[nH]c1C)N2 [RG1530]
2. COC(=O)C1=C(C)NC(C)=C(C(=O)OCCN(C)Cc2ccccc2)C1c1cccc([N+](=O)[O-])c1 (stereo unspecified) [nicardipine]
3. CCC(=O)NC[C@@H]1C[C@H]1c1cccc2c1CCO2 [tasimelteon]
4. C=C(C)[C@H]1CN[C@H](C(=O)O)[C@H]1CC(=O)O [kainic-acid]
5. CON(C)C(=O)N1N=C(c2cc(F)ccc2F)S[C@@]1(CCCN)c1ccccc1 [filanesib]
6. CN1CCN(c2cccc3[nH]c(=O)oc23)CC1 [pardoprunox]
7. Cc1nc(NC(=O)N2CCC[C@H]2C(N)=O)sc1-c1ccnc(C(C)(C)C(F)(F)F)c1 [alpelisib]

*A*
[93.9, 141, 102, 110, 35.1, 89.1, 89.6]

Could I get cell viability for every one of these entries?
1. Oc1ccc2ccccc2c1SSc1c(O)ccc2ccccc12 [IPA-3]
2. C[N+]12CCCCC1CCC(=C(c1cccs1)c1cccs1)C2 (stereo unspecified) [tiquizium]
3. O=C(C[S+]([O-])C(c1ccccc1)c1ccccc1)NO (stereo unspecified) [adrafinil]
4. C[C@@H]1NC(=O)[C@@H]2CCCN2C(=O)[C@H](CC(N)=O)NC(=O)[C@@H]2CSSC[C@H](N)C(=O)N[C@H]3CSSC[C@H](NC1=O)C(=O)N[C@@H]([C@@H](C)O)C(=O)NCC(=O)N[C@H](C(=O)N[C@@H](Cc1ccc(O)cc1)C(=O)O)CSSC[C@H](NC(=O)[C@H](Cc1ccc(O)cc1)NC(=O)[C@H](CCC(=O)O)NC3=O)C(=O)N2 [linaclotide]
5. NC(=O)[C@@H](CCC(F)(F)F)N(Cc1ccc(-c2ncon2)cc1F)S(=O)(=O)c1ccc(Cl)cc1 [avagacestat]
6. C=C1C(=O)O[C@@H]2[C@H]3C(C)=CC[C@@]34O[C@@]4(C)CC[C@@H]12 [arglabin]
7. CCOc1cc(C(=O)Nc2ccc(Cl)c(-c3nc4ccccc4[nH]3)c2)cc(OCC)c1OCC [SANT-2]

*A*
1. 89.2
2. 98.9
3. 97.2
4. 102
5. 94.9
6. 96.7
7. 99.6

*Q* Returns the measured cell viability for the input compound. Input: CC1CC(OC(=O)C(O)c2ccccc2)CC(C)(C)C1 (stereo unspecified) [cyclandelate]
*A* 100

###

Can you tell me cell viability for the items I'm about to list?
test system: HepG2; test: cell viability relative to DMSO; higher = less toxic; settings: 72 h; 10 nM
Answers are plain numbers, in %.

{"compound": "COC(=O)C1=C(C)NC(C)=C(C(=O)OCCN(C)Cc2ccccc2)C1c1cccc([N+](=O)[O-])c1 (stereo unspecified)", "readout-units": "%", "cell viability": 100}
{"compound": "CC(=O)S[C@@H]1CC2=CC(=O)CC[C@]2(C)[C@H]2CC[C@@]3(C)[C@@H](CC[C@@]34CCC(=O)O4)[C@H]12", "readout-units": "%", "cell viability": 99.7}
{"compound": "O=C1N=C(NCc2cccs2)S/C1=C\\c1ccc2ncccc2c1", "readout-units": "%", "cell viability": 77.7}
{"compound": "CON(C)C(=O)N1N=C(c2cc(F)ccc2F)S[C@@]1(CCCN)c1ccccc1", "readout-units": "%", "cell viability": 50}
{"compound": "O=c1c(-c2ccccc2)c1-c1ccccc1", "readout-units": "%", "cell viability": 91.4}
{"compound": "CC(=O)N[C@@H](CC(C)C)C(=O)O", "readout-units": "%", "cell viability": 99.2}
{"compound": "Cc1c2oc3c(C)ccc(C(=O)N[C@@H]4C(=O)N[C@@H](C(C)C)C(=O)N5CCC[C@H]5C(=O)N(C)CC(=O)N(C)[C@@H](C(C)C)C(=O)O[C@@H]4C)c3nc-2c(C(=O)N[C@@H]2C(=O)N[C@@H](C(C)C)C(=O)N3CCC[C@H]3C(=O)N(C)CC(=O)N(C)[C@@H](C(C)C)C(=O)O[C@@H]2C)c(N)c1=O", "readout-units": "%", "cell viability": 41.4}
{"compound": "Cc1ccc2c(c1)c1c(n2CCc2ccc(C)nc2)CCN(C)C1 [latrepirdine]", "readout-units": "%", "cell viability": 102}
{"compound": "NC(=O)[C@@H](CCC(F)(F)F)N(Cc1ccc(-c2ncon2)cc1F)S(=O)(=O)c1ccc(Cl)cc1", "readout-units": "%", "cell viability": 102}
{"compound": "C#CCOC(=O)C1=CCCN(C)C1", "readout-units": "%", "cell viability": 95.5}

Could I get cell viability for every one of these entries?
1. COc1ccc2cccc(N3CCN(CCNC(=O)c4ccc(F)cc4)CC3)c2c1
2. CCCN(CCc1cccs1)[C@H]1CCc2c(O)cccc2C1
3. COc1ccc(CNCc2cccc3ccccc23)cc1
4. CC(O)CC(=O)O (stereo not drawn) [beta-hydroxybutyrate]
5. CC=C1C(=O)C[C@H]2[C@@H]3CCC4=CC(=O)CC[C@]4(C)[C@H]3CC[C@]12C
6. COc1cc2c(cc1OC)CN(C(=O)/C=C/c1c(-c3ccccc3)n(C)c3ncccc13)CC2

*A*
98.9
91.7
108
96.2
93.1
106

Source of measurements: the supplement of paper PMC13380429
